Entry source: ChEMBL document CHEMBL1201862

- Test system: SW-620
- Protocol: NCI tumour cell line growth inhibition, 48 h
The source made the active and inactive calls. Rule as the data show it: active = GI50 up to about 1.1 µM and inactive = higher.
Outcomes: Yes (active), No (inactive)

{"columns": ["Molecule", "Assigned class"],
 "data": [
  ["O=C1CCCCC/C1=C\\c1ccc(Cl)cc1", "No"],
  ["Cc1ccnc2sc3ccccc3c(=O)c12", "No"],
  ["COC1OC(COS(=O)(=O)c2ccc(C)cc2)C(O)C(OS(=O)(=O)c2ccc(C)cc2)C1OS(=O)(=O)c1ccc(C)cc1 (stereo unspecified)", "No"],
  ["CC(C)c1[nH]nc(C(N)=O)c1/N=N/N(C)C", "No"],
  ["CC(=O)OC1CCC2(C)C(CCC3C2CCC2(C)C(c4ccc(=O)oc4)C(OC(C)=O)CC32O)C1 (stereo unspecified)", "Yes"],
  ["CC(=O)[O-].[O-]c1c(Cl)cc(Cl)cc1/C=N/Nc1ccccn1.[Zn+2]", "No"]
]}

* * *

Reported GI50 values are given for each entry in this list.
- System: MDA-MB-435
- Protocol: NCI tumour cell line growth inhibition, 48 h
Active and inactive are the calls of the source. Rule as the data show it: active = GI50 up to about 1.1 µM and inactive = higher.
Quantity name: GI50

{"columns": ["Compound", "Quantity name", "Experimental result"],
 "data": [
  ["CN(C)Cc1cc(C(=O)/C=C/c2c(Cl)cccc2Cl)cc(CN(C)C)c1O", "GI50", "9.2 µM (inactive)"],
  ["CCOC(=O)/C(C#N)=C/c1ccc2c(-c3c(OCC)ccc4cc(/C=C(\\C#N)C(=O)OCC)ccc34)c(OCC)ccc2c1", "GI50", "> 100 µM (inactive)"],
  ["Cn1ncc2[nH]cnc2c1=S", "GI50", "> 100 µM (inactive)"],
  ["Nc1ccc(C(=O)Nc2ccccc2N)cc1 [DINALINE]", "GI50", "20.4 µM (inactive)"],
  ["COc1cc(-c2cn(S(=O)(=O)c3ccc(C)cc3)c3ccccc23)nc(-c2cn(S(=O)(=O)c3ccc(C)cc3)c3ccccc23)n1", "GI50", "0.18 µM (active)"],
  ["CCN(CCCl)c1cc(CN(C)C)cc(NC(=O)C23CCC(C(=O)Nc4cc(CN(C)C)cc(N(CC)CCCl)c4)(CC2)CC3)c1", "GI50", "1.39 µM (inactive)"],
  ["O=c1c2cccnc2cc(-c2ccccc2)n1CCO", "GI50", "> 100 µM (inactive)"],
  ["CNC1(C(=O)O)CC1", "GI50", "> 100 µM (inactive)"],
  ["COC(=O)CCC(C)[C@H]1CCC2C3C(C[C@H](OC(C)=O)[C@@]21C)[C@@]1(C)CCC2(C[C@H]1C[C@H]3OC(C)=O)OOC1(CCCCC1)OO2 (stereo not given in full)", "GI50", "36.2 µM (inactive)"],
  ["O=C(/C=C/c1ccccc1)OCC1=C[C@@H](O)[C@@H]2C=CO[C@@H](OC3OC(CO)C(O)C(O)C3O)[C@H]12 (stereo not given in full)", "GI50", "> 100 µM (inactive)"],
  ["O=C1c2c(O)ccc(O)c2C(=O)c2c(NCCNCCO)ccc(NCCNCCO)c21 [MITOXANTRONE]", "GI50", "0.259 µM (active)"],
  ["COc1cc2c[n+](C)c3c4ccccc4ccc3c2cc1OC", "GI50", "3.83 µM (inactive)"],
  ["O=P1(NCCCl)OCCC(OO)N1CCCl (stereo not given)", "GI50", "56.1 µM (inactive)"],
  ["CC(C)(O)c1cc2c(cc1C(C)(C)O)-c1ccccc1-2", "GI50", "> 100 µM (inactive)"],
  ["CCN(CC)/N=N/c1c(C(N)=O)n[nH]c1C", "GI50", "77.4 µM (inactive)"],
  ["O=C(C/N=C(\\CN(c1ccccc1)c1ccccc1)Oc1c(Cl)cc(Cl)cc1Cl)N1c2ccccc2Sc2ccccc21", "GI50", "34.2 µM (inactive)"],
  ["CN(C)c1ccc(NN=C2SC(=N\\c3ccccc3)/C(=N/c3ccccc3)S2)cc1", "GI50", "20.4 µM (inactive)"],
  ["N#CC12CNCC1CN=N2 (stereo not given)", "GI50", "> 100 µM (inactive)"],
  ["COc1ccc(-c2cc(-c3ccco3)c(C#N)c(=S)n2C2OC(CO)C(O)C(O)C2O)cc1 (stereo not given)", "GI50", "> 100 µM (inactive)"],
  ["CN(C)c1ccc(/N=N/c2ccccn2)cc1", "GI50", "23.4 µM (inactive)"]
]}

* * *

- Tested on: NCI-H522
- Protocol: NCI tumour cell line growth inhibition, 48 h
The source made the active and inactive calls. No stated cut-off is given here; in the data, active = GI50 up to about 1.1 µM and inactive = higher.
Outcomes: active, inactive

{"columns": ["Molecule", "Assigned class"],
 "data": [
  ["C=C(CO)[C@H]1Oc2ccc(C(C)=O)cc2[C@@H]1O", "inactive"],
  ["Brc1ccc2c(c1)C1=C(CO2)Cc2ccccc2O1", "inactive"],
  ["O=C1C/C(=N/c2ccc(Cl)cc2)C(c2ccccc2)N1c1ccccc1 (stereo not given)", "inactive"],
  ["Cc1ccc(-n2cc(-c3ccc(Cl)cc3)c3c2N=CN2N=C(c4ccco4)NC32)cc1 (stereo not given)", "inactive"],
  ["COC(=O)C1C(C)N1C (stereo not given)", "inactive"],
  ["O=C(Nc1cc([N+](=O)[O-])cc([N+](=O)[O-])c1)OC1C2CCC1C1OC1C2 (stereo not given)", "inactive"],
  ["CC(=O)/C=C1\\Nc2ccc([N+](=O)[O-])cc2N\\C1=C/C(C)=O", "inactive"],
  ["CC(=O)[C@H]1CC[C@H]2[C@@H]3CCC4=CC(=O)CC[C@]4(C)[C@H]3CC[C@]12C", "inactive"],
  ["O=[N+]([O-])c1cccc2nc3ccccc3c(NCCCn3ccnc3[N+](=O)[O-])c12", "active"],
  ["N#Cc1c(-c2ccccc2)c(C=O)c(=O)n2c1[nH]c1ccccc12", "inactive"]
]}

* * *

- Test system: Malme-3M
- Protocol: NCI tumour cell line growth inhibition, 48 h
Activity calls are given as the source filed them. Rule as the data show it: active = GI50 up to about 1.1 µM and inactive = higher.
Quantity name: GI50

{"columns": ["Compound", "Quantity name", "Experimental result"],
 "data": [
  ["OCCN(CCO)CCn1cnc2c(NCc3ccccc3)ncnc21", "GI50", "> 100 µM (inactive)"],
  ["C=C(CO)[C@H]1Oc2ccc(C(C)=O)cc2[C@@H]1O", "GI50", "53.3 µM (inactive)"],
  ["O=C(/C=N/c1ccccc1S)c1ccco1", "GI50", "18.9 µM (inactive)"],
  ["O=C1Sc2sc(=S)sc2SC1c1ccccc1 (stereo unspecified)", "GI50", "> 49.3 µM (inactive)"],
  ["O=C1C(=O)C(Br)(Br)C(Br)=C1Br", "GI50", "20 µM (inactive)"],
  ["Cc1nc([N+](=O)[O-])cn1CC(=N)N", "GI50", "> 100 µM (inactive)"],
  ["O=C1C=CC(=C(c2ccc(O)cc2)c2ccc(O)cc2)C=C1", "GI50", "12 µM (inactive)"],
  ["CNC1(C(=O)O)CC1", "GI50", "> 100 µM (inactive)"],
  ["C#C[C@]1(O)CCC2C3CCc4cc(Oc5nc(F)nc(-c6c7cc8ccccc8cc7c7n6CCS7)n5)ccc4C3CCC21C (stereo partly specified)", "GI50", "53.6 µM (inactive)"],
  ["ClCc1nn(-c2ccccc2)c(CCl)c1CCl", "GI50", "2.99 µM (inactive)"],
  ["COC1OC(COS(=O)(=O)c2ccc(C)cc2)C(O)C(OS(=O)(=O)c2ccc(C)cc2)C1OS(=O)(=O)c1ccc(C)cc1 (stereo unspecified)", "GI50", "> 100 µM (inactive)"]
]}

* * *

- System: HOP-92
- Protocol: NCI tumour cell line growth inhibition, 48 h
Active and inactive are the calls of the source. No stated cut-off is given here; in the data, active = GI50 up to about 1.1 µM and inactive = higher.
Outcomes: active, inactive

{"columns": ["Compound", "Assayed target", "Assigned class"],
 "data": [
  ["C=C1C(=O)OC2CC(C)C(C(CC(C)=O)OC(C)=O)=CCC12 (configuration not stated)", "HOP-92", "inactive"],
  ["C/C(=N\\Nc1nc2ccccc2[nH]1)c1ncccn1", "HOP-92", "active"],
  ["COC(=O)CNC(=O)/C=C/[C@H](O[Si](C)(C)C(C)(C)C)[C@H](/C=C/C(=O)NCC(=O)OC)O[Si](C)(C)C(C)(C)C", "HOP-92", "inactive"],
  ["Cc1cc(CC(O)(C(F)(F)F)C(F)(F)F)cc(CC(O)(C(F)(F)F)C(F)(F)F)n1", "HOP-92", "inactive"],
  ["CCOC(=O)Cn1nnc2cc(Nc3nc4ccccc4nc3C(=O)OCC)ccc21", "HOP-92", "inactive"],
  ["O=c1c2nn3c(=O)n(-c4ccccc4)c(=O)c3nn2c(=O)n1-c1ccccc1", "HOP-92", "inactive"],
  ["CN(CCNC(=O)c1cn(C)c2c1ccc1cc(Cl)c(Cl)cc12)CCNC(=O)c1cn(C)c2c1ccc1cc(Cl)c(Cl)cc12", "HOP-92", "inactive"],
  ["CN(C)Cc1cc(C(C)(C)C)cc(CN(C)C)c1O", "HOP-92", "inactive"],
  ["COc1ccc(-c2nc(-c3ccc(OC)cc3)n(-c3ccccc3)n2)cc1", "HOP-92", "inactive"],
  ["Cc1ccc(/N=N/c2c(O)c(C(=O)O)cc3ccccc23)cc1C", "HOP-92", "inactive"],
  ["O=C1/C(=C/c2ccc(Cl)cc2)CCC1CN1CCOCC1 (configuration not stated)", "HOP-92", "inactive"],
  ["O/N=C(\\CC(O)(C(F)(F)F)C(F)(F)F)c1cccc(Cl)c1", "HOP-92", "inactive"],
  ["CN(C)Cc1cc(C(=O)/C=C/c2c(Cl)cccc2Cl)cc(CN(C)C)c1O", "HOP-92", "inactive"],
  ["CCCCNC(=O)CCN(C(=O)O)S(=O)(=O)c1ccc(NC(=O)c2ccccc2)cc1", "HOP-92", "inactive"],
  ["COC(=O)c1c(C)cccc1CC1Cc2c(C)cccc2C1=O (configuration not stated)", "HOP-92", "inactive"],
  ["CNC(=O)Nc1nc2cc([N+](=O)[O-])ccc2[nH]1", "HOP-92", "inactive"],
  ["Cc1ccc([S@+]([O-])c2occc2C=O)cc1", "HOP-92", "inactive"],
  ["C=C(C)c1nc(Oc2ccccc2)nc(Oc2ccccc2)n1", "HOP-92", "inactive"],
  ["CC(=O)[O-].[O-]c1c(Cl)cc(Cl)cc1/C=N/Nc1ccccn1.[Zn+2]", "HOP-92", "active"],
  ["SC1=NC2=C(CSC/C2=C\\c2ccccc2)C(c2ccccc2)N1 (configuration not stated)", "HOP-92", "inactive"],
  ["S=P1(c2ccccc2)Nc2ccc(Cl)cc2N1 (configuration not stated)", "HOP-92", "inactive"],
  ["CSC(SC)=C1Sc2cccc(Cl)c2S1", "HOP-92", "inactive"]
]}
